- Target Under Test: Gal(a1-3)Gal(b1-3)GlcNAc(b1-2)Man(a1-3)[Gal(a1-3)Gal(b1-3)GlcNAc(b1-2)Man(a1-6)]Man(b1-4)GlcNAc(b1-4)GlcNAc
- Experimental Details: glycan array binding signal (z-score within array); higher = stronger binding
- Experimental Conditions: glycan notation: IUPAC condensed, linker removed
Many of the other results were omitted from the sample, so the strongest signals are more common in it than they were.
Measurement Kind: glycan array binding signal (z-score)
Give your answer as a number; write no unit.

Below: 5 binders and their reported glycan array binding signal (z-score).
[in] Input SUN4 (Saccharomyces cerevisiae), P53616 (protein) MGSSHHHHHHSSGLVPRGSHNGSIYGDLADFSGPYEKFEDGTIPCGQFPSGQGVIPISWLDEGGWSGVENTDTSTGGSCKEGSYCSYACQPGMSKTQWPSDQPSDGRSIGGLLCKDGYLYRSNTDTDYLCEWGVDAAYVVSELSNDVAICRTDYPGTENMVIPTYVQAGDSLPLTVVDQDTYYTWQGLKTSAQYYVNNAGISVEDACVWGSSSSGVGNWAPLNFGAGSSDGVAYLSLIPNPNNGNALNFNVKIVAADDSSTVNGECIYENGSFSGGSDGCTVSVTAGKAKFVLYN , output reported glycan array binding signal (z-score).
[out] 1.63

[in] Quote glycan array binding signal (z-score) reported for CALR truncated at D342 (Homo sapiens) (protein) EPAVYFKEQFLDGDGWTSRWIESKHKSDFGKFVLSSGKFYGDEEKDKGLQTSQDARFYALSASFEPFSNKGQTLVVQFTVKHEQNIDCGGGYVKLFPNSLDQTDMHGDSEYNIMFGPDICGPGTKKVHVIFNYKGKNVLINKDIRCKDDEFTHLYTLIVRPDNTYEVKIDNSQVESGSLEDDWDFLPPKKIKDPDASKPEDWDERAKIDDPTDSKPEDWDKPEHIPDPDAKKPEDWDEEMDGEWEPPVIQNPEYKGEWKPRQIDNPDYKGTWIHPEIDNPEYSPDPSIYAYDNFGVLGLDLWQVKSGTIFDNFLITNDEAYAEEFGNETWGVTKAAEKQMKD please.
[out] 0.21

[in] Tell us which glycan array binding signal (z-score) value is on record for Gal 2 (Homo sapiens), P05162 (protein) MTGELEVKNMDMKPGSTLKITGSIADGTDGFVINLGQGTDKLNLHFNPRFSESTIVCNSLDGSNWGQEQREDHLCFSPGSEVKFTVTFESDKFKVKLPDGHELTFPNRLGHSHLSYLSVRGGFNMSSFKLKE
[out] -0.222

[in] Name the recorded glycan array binding signal (z-score) of the item CFEM-PPm (Pichia pastoris), F2QPV1 (protein) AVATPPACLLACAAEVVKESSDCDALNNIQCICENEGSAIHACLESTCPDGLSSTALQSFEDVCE in your answer.
[out] 0.425

[in] State its glycan array binding signal (z-score) for this binder: OVGAL11 (Ovis aries), AAF64320 (protein) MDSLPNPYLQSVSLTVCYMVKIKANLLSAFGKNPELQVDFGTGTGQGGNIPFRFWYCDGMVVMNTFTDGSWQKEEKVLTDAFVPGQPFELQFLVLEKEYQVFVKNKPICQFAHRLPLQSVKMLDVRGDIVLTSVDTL
[out] -0.081

Further cases:
[in] Specify reported glycan array binding signal (z-score) for the binder shown: CREG (Mus musculus), O88668 (protein) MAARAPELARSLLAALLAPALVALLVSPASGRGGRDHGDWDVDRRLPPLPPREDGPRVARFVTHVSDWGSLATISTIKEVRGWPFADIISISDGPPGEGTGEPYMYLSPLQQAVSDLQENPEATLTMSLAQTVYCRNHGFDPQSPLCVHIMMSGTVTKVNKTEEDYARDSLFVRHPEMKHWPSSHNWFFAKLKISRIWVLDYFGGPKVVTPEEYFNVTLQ
[out] 3.49

[in] Supply glycan array binding signal (z-score) value. Item: Nictaba (Nicotiana tabacum), Q94EW1 (protein) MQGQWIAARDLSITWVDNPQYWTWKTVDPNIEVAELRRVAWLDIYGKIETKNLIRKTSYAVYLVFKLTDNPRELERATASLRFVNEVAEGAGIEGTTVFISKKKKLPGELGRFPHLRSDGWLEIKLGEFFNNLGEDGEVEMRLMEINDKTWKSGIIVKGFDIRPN
[out] -0.148

[in] Query glycan array binding signal (z-score) for GS13455A-bfa-343-25-343 (Bacteroides fragilis) (protein) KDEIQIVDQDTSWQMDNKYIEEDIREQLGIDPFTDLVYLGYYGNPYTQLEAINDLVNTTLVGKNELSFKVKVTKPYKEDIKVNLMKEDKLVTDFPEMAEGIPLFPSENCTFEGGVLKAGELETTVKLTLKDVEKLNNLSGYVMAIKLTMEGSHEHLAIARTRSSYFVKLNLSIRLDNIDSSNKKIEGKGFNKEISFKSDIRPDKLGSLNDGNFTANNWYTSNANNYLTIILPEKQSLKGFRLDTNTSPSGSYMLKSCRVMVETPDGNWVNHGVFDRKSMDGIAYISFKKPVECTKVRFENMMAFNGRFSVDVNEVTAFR
[out] -0.044

[in] Given pilr alpha (protein) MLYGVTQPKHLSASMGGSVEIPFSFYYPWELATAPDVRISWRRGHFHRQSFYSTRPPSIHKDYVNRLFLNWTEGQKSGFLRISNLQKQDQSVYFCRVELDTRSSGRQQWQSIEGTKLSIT , respond with its glycan array binding signal (z-score).
[out] -0.319

[in] Annotate the binder OGAA (protein) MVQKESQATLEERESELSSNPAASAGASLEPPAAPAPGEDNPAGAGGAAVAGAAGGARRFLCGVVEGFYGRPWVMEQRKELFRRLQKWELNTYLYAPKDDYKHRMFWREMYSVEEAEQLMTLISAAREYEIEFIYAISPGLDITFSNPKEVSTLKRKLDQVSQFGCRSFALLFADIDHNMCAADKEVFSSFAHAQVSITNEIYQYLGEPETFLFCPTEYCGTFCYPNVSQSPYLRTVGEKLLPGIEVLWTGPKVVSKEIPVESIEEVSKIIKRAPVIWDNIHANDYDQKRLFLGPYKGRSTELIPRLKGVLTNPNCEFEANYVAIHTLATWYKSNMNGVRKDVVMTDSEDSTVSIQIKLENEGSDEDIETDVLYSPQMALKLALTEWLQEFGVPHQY with its measured glycan array binding signal (z-score).
[out] 0.031
